Molecular target: T1, recombinant His-tagged Der p1 (dust mite, UniProt P08176 99-320, limits assumed)
T1 construct: Recombinant His-tagged protein made by the applicant; also called Der p1-His; Der pl; not shown: His tag
T1 sequence (looked up): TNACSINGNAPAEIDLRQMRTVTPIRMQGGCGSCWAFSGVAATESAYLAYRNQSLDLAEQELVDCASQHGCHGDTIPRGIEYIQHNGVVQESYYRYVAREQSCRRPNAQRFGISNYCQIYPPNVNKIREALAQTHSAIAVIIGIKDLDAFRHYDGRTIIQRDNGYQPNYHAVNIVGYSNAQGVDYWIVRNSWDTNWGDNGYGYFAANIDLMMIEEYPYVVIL
Test: ELISA, antigen coated on plate
outcome_measure: EC50 (µg/mL)

{"binder": "SDAB22129-55-35-46-49-1-C12 (VHH, Expressed from a prokaryotic vector) VHH: QVQLVESGGGLVQAGGSLRLSCAASGRTFSSYAMGWFRQAPGKEREFVAIISNTGGLTDYAHSVKGRFTISRDNAKNTGYLQMNSLKPEDTALYYCAADFLGPKSWPSYWGQGTQVTVSS", "quantitative_result": 4.95}
{"binder": "SDAB22129-55-35-46-49-1-G02 (VHH, Expressed from a prokaryotic vector) VHH: QLQLVESGGGLVQAGGSLRLSCTASGRTFRNFGMGWFRQAPGKERKLVASISYVGGNTDYADSVKGRFTISMDNAKNTVVLQMNSLKPEDTAMYYCAARNPNRNEYPWWGQGTQVTVSS", "quantitative_result": 4.21}
{"binder": "SDAB22129-55-35-46-49-1-G07 (VHH, Expressed from a prokaryotic vector) VHH: QVQLVESGGGLVQAGGSLRLSCAASGRTFSSYAMGWFRQAPGKERELVATISWSGGSTYYADSVKGRFTISRDNAKNTGFLQMNSLKPEDTAVYYCAADFASTVGTPLTRPAYWGQGTQVTVSS", "quantitative_result": 0.485}

Source of measurements: patent US20240352105A1
